Biological target: Ryanodine receptor 2 (Homo sapiens)
Sequence (Q92736 whole entry): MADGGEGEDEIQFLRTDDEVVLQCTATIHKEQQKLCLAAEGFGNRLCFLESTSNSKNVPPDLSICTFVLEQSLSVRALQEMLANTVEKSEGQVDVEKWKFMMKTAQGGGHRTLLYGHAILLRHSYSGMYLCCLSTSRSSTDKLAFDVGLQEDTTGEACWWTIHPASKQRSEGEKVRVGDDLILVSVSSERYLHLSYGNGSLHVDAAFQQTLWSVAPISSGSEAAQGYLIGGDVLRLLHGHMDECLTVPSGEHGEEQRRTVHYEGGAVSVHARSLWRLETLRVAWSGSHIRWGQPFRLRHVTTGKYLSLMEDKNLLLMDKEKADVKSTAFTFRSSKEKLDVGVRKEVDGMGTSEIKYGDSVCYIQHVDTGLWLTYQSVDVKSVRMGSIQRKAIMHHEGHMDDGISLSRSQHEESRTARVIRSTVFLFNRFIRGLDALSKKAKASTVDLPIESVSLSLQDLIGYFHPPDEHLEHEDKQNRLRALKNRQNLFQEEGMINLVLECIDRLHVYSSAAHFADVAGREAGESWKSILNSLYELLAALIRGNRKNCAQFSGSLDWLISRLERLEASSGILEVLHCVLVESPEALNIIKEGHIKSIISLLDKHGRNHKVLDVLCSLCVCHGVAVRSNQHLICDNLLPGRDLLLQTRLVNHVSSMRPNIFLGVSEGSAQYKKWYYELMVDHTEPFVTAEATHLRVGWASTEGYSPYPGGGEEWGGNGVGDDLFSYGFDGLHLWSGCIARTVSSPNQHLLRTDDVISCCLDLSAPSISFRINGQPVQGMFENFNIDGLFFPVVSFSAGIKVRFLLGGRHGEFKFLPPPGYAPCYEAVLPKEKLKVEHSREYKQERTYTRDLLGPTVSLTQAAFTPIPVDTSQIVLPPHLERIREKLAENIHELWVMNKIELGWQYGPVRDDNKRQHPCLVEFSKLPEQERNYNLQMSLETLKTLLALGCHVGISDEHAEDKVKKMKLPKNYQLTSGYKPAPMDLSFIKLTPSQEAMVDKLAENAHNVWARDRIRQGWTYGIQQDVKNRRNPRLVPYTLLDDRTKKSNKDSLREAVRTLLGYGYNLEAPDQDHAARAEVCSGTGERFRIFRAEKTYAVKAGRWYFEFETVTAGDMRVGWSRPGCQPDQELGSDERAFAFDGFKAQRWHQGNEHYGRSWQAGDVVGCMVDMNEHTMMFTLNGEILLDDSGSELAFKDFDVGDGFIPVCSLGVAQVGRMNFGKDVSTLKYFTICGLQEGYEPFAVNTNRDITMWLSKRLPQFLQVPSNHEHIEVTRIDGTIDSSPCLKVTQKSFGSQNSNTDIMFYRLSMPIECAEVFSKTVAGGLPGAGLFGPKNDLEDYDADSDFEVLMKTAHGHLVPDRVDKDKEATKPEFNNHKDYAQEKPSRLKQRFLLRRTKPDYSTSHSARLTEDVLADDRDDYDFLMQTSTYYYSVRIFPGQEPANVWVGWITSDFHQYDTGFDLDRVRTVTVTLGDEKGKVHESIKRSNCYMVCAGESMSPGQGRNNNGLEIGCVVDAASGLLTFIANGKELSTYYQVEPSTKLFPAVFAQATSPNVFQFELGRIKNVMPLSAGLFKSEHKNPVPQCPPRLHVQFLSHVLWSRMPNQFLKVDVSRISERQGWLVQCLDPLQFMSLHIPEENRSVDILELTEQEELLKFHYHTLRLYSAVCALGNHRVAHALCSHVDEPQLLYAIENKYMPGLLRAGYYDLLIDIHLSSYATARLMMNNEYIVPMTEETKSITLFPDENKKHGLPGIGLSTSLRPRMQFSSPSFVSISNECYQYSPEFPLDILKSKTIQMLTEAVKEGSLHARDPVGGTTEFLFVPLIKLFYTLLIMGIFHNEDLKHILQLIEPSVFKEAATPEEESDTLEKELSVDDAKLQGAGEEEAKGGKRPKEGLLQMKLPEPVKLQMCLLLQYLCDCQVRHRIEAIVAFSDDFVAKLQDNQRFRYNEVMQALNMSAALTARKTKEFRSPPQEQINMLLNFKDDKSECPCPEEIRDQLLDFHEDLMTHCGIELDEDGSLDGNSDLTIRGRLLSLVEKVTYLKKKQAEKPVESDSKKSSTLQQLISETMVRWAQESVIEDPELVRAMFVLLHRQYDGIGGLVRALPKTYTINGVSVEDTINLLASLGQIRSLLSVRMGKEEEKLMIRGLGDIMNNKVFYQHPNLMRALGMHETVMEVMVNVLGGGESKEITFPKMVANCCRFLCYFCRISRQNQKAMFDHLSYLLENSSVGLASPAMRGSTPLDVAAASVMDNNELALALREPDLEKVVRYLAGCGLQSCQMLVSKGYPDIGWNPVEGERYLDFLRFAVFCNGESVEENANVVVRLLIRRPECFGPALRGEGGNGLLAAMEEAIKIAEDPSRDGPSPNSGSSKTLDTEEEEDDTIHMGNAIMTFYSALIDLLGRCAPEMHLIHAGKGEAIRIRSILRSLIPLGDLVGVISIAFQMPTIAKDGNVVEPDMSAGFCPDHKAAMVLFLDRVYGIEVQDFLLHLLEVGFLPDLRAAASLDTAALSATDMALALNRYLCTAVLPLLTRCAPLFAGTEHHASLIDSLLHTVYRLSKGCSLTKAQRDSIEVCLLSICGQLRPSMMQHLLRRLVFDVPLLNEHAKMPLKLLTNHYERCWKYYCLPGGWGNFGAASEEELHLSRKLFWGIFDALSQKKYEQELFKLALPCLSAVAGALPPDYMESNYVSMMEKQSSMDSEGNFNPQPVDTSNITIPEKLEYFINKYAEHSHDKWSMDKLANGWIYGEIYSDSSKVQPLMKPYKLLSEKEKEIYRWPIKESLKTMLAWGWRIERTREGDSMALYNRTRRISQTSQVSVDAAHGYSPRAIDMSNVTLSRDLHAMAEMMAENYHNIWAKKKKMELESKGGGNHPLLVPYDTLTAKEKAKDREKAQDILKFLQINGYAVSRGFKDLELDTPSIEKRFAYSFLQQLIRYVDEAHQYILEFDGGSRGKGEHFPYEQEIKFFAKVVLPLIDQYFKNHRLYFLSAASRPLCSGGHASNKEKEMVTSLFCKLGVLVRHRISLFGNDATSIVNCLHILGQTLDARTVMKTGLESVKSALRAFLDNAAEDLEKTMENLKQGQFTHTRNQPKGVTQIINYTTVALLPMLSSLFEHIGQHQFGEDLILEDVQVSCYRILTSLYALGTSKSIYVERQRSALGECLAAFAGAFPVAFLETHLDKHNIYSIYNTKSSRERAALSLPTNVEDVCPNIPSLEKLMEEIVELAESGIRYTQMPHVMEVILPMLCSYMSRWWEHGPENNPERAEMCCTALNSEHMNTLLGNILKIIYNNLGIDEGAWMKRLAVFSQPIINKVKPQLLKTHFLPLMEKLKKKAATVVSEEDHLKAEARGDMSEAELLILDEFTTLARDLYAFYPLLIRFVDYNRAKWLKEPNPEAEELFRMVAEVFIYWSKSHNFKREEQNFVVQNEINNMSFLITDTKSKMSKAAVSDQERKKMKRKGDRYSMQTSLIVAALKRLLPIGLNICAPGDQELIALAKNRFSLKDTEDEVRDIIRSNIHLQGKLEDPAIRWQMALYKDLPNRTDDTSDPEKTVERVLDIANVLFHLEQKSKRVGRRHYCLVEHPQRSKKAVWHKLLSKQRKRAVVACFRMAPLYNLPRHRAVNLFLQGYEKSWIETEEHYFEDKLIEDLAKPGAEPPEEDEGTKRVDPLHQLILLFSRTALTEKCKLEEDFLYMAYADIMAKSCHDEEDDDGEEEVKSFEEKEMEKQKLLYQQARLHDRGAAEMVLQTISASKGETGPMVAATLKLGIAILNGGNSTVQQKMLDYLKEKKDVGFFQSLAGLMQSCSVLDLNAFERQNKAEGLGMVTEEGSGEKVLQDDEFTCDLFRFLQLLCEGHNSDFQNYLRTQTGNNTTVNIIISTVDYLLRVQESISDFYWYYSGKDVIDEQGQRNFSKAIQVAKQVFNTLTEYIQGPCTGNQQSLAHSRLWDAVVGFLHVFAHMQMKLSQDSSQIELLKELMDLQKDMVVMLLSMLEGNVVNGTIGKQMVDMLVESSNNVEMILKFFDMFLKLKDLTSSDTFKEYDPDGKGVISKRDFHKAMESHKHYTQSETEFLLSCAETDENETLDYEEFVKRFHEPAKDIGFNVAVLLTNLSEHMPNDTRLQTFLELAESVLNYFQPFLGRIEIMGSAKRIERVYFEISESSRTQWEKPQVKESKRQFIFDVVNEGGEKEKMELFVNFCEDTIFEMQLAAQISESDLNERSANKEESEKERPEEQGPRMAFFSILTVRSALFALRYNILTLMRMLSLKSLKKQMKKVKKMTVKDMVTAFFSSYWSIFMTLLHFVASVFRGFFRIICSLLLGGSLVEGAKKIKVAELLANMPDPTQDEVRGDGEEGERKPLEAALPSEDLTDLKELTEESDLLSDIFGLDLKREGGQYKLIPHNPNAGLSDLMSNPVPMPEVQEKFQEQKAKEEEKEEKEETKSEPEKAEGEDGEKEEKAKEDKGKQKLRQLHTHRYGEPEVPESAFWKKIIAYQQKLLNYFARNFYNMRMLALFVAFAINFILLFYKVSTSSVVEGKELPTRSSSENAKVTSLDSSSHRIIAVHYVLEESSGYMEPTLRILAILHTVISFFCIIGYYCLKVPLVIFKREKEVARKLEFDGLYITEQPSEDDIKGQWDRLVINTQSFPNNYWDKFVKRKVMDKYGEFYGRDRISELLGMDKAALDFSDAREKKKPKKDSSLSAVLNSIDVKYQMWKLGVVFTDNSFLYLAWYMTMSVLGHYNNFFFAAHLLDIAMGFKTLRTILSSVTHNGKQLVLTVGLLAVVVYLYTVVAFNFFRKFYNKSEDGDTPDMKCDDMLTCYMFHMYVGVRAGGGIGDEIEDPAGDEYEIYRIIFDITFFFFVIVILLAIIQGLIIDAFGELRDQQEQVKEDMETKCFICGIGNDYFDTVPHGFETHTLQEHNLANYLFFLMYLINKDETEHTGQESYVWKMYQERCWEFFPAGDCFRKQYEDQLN
Assay: Activation of ryanodine receptor in human IMR32 cells assessed as induction of calcium mobilization
Observed property: EC50

Quick one: EC50 of `CNC(=O)c1cc(Cl)cc(C)c1NC(=O)c1cc(Br)nn1-c1ncccc1Cl` ?
> 100 µM

====

System: Plutella xylostella
Assay: Insecticidal activity against Plutella xylostella
Type: functional
Entries annotated with measured LC50
Numeric answer only, unit mg/L assumed.

Compound	Observed property	Quantitative readout
CNC(=O)c1cc(Cl)cc(C)c1NC(=O)c1cc(Br)nn1-c1ncccc1Cl [CHLORANTRANILIPROLE]	LC50	0.02
CNC(=O)c1cc(Cl)cc(C)c1NC(=O)c1cc(Cl)nn1-c1ncccc1Cl	LC50	0.03
Cc1cc(Cl)cc(C(=O)NC(C)C)c1NC(=O)c1cc(Br)nn1-c1ncccc1Cl	LC50	0.04
CNC(=O)c1cc(I)cc(C)c1NC(=O)c1cc(C(F)(F)F)nn1-c1ncccc1Cl	LC50	0.1
CNC(=O)c1cc(Cl)cc(C)c1NC(=O)c1cc(OCC(F)(F)F)nn1-c1ncccc1Cl	LC50	0.04
Cc1cc(Cl)cc(C(=O)NC(C)C)c1NC(=O)c1cc(C(F)(F)F)nn1-c1ncccc1Cl	LC50	0.01
CNC(=O)c1cc(C(F)(F)F)cc(C)c1NC(=O)c1cc(C(F)(F)F)nn1-c1ncccc1Cl	LC50	0.09
Cc1cc(Cl)cc(C(=O)NC(C)C)c1NC(=O)c1cc(OC(F)F)nn1-c1ncccc1Cl	LC50	0.1

Next, consider the following compound.
Query for Plutella xylostella: what LC50 does the record show for `CNC(=O)c1cc(Br)cc(C)c1NC(=O)c1cc(Br)nn1-c1ncccc1Cl` ?
0.06

====

Tested on: Plutella xylostella
Assay: Insecticidal activity against Plutella xylostella
Type: functional
Observed property: log10(LC50) (log10 of the value in µg/mL)
Kindly note that the scale is log10 and the underlying LC50 is in µg/mL.

Here is how some compounds turned out for log10(LC50).
Chemical smiles	Target desc	log10(LC50)
CNC(=O)c1cc(Cl)cc(C)c1NC(=O)c1cc(OC)nn1-c1ncccc1Cl	Plutella xylostella	-0.48
CNC(=O)c1cc(Cl)cc(C)c1NC(=O)c1cc(C(F)(F)F)nn1-c1ncccc1Cl	Plutella xylostella	-2.00
COc1cc(C(=O)Nc2c(C)cc(Cl)cc2C(=O)NC(C)C)n(-c2ncccc2Cl)n1	Plutella xylostella	-0.74

Quick one: log10(LC50) of `Cc1cc(Cl)cc(C(=O)NC(C)C)c1NC(=O)c1cc(OCC(F)(F)F)nn1-c1ncccc1Cl` ?
-2.00

Please answer likewise for `Cc1cc(Cl)cc(C(=O)NC(C)C)c1NC(=O)c1cc(Cl)nn1-c1ncccc1Cl`
-1.05

Please answer likewise for `Cc1cc(Br)cc(C(=O)NC(C)C)c1NC(=O)c1cc(C(F)(F)F)nn1-c1ncccc1Cl`
-2.00

====

Target: Ryanodine receptor (Drosophila melanogaster, UniProt Q24498)
Assay: Activation of Drosophila melanogaster ryanodine receptor in Sf9 cells assessed as induction of calcium mobilization
Observed property: EC50 (nM)
Numeric answer only, unit nM assumed.

Quick one: EC50 of `CNC(=O)c1cc(Cl)cc(C)c1NC(=O)c1cc(Br)nn1-c1ncccc1Cl` ?
40

====

Tested on: Plutella xylostella
Experiment: Insecticidal activity against Plutella xylostella
Assay type: functional
Observed property: LC50 (µg/mL)
Numeric answer only, unit µg/mL assumed.

Here is how some compounds turned out for LC50.
Chemical smiles	Unit descriptor	LC50
CNC(=O)c1cc(Cl)cc(C)c1NC(=O)c1cc(OC(F)F)nn1-c1ncccc1Cl	µg/mL	0.38
Cc1cc(C(F)(F)F)cc(C(=O)NC(C)C)c1NC(=O)c1cc(C(F)(F)F)nn1-c1ncccc1Cl	µg/mL	0.07

Query for Plutella xylostella: what LC50 does the record show for `CNC(=O)c1cc(I)cc(C)c1NC(=O)c1cc(Br)nn1-c1ncccc1Cl` ?
0.07
